Value source: patent US6150385A

# ASSAYED TARGET: HCMV polymerase (Human cytomegalovirus)
# Construct: made in house; host or cells: SF-9 insect cells infected with recombinant baculovirus
# PROCEDURE SUMMARY: HCMV polymerase assay (scintillation proximity assay)
# Type: biochemical
# DETAILS: percentage of inhibition at 25 μM concentration in CMV polymerase assay
MEASUREMENT NAME: inhibition at 25 µM (%)

O=C(Nc1nnc(NC2CCCc3ccccc32)s1)c1ccc2c(c1)C(=O)OC2=O (stereo not drawn) [compound 21]; 97.4

P: O=C(Nc1nnc(NCC(c2ccccc2)c2ccccc2)s1)c1ccc(F)cc1F [compound 182]
Q: O=C(Nc1nnc(NCCc2ccccc2)s1)c1cc(F)cc(F)c1 [compound 437]
Would you kindly point out which of P and Q has the smaller inhibition at 25 µM figure? When you have decided, please share the label of that item.
Q
(Q: 22.7%, P: 48.2%)

P: O=C(Nc1nnc(NC2CCN(Cc3ccccc3)CC2)s1)c1c(Cl)cccc1Cl [compound 151]
Q: O=C(Nc1nnc(NCc2cccc3ccccc23)s1)c1ccc(F)cc1F [compound 363]
R: O=C(Nc1nnc(NCCCNC2CCCCC2)s1)c1ccc2c(c1)C(=O)OC2=O [compound 2]
Order the records so the highest inhibition at 25 µM appears first and the lowest last. Please, when replying, give the labels in the order that was requested.
R, P, Q
(R: 100%, P: 54%, Q: 28.8%)

P: O=C(CCCCCl)Nc1nnc(NCCC(c2ccccc2)c2ccccc2)s1 [compound 183]
Q: CC(=O)NCCNc1nnc(NC(=O)c2c(C(C)C)cc(C(C)C)cc2C(C)C)s1 [compound 332]
Could you please tell me which of these two has the higher inhibition at 25 µM: P or Q ? Indicate your choice by writing its label.
P
(P: 48.1%, Q: 32%)

----------
# ASSAYED TARGET: HCMV polymerase (Human cytomegalovirus)
# Construct: made in house; host or cells: SF-9 insect cells infected with recombinant baculovirus
# PROCEDURE SUMMARY: HCMV polymerase assay (scintillation proximity assay)
# Type: biochemical
# DETAILS: percentage of inhibition at 25 μM concentration in CMV polymerase assay
MEASUREMENT NAME: inhibition at 25 µM (%)

Reference set, count: 2
CCCCCCCC/C=C/CCCCCCCC(=O)Nc1nnc(NCCC(=O)OC(C)(C)C)s1; 68
Cc1ccc(C(=O)Nc2nnc(NCCc3ccccc3)s2)cc1; 29.1

I: O=C(Nc1nnc(NCCc2ccccc2)s1)c1c(Cl)cccc1Cl
II: CC(C)c1cc(C(C)C)c(C(=O)Nc2nnc(NCCNc3ccccc3)s2)c(C(C)C)c1
III: O=C(Nc1nnc(NCCc2c[nH]c3ccccc23)s1)c1ccc([N+](=O)[O-])o1
Descending sort on inhibition at 25 µM required. Write the labels out in the order the request specifies.
III, II, I

----------
# ASSAYED TARGET: HCMV polymerase (Human cytomegalovirus)
# Construct: made in house; host or cells: SF-9 insect cells infected with recombinant baculovirus
# PROCEDURE SUMMARY: HCMV polymerase assay (scintillation proximity assay)
# Format: biochemical
# DETAILS: percentage of inhibition at 25 μM concentration in CMV polymerase assay
MEASUREMENT NAME: inhibition at 25 µM (%)

A: CCOC(=O)N1CCC(Nc2nnc(NC(=O)/C=C/c3ccccc3Cl)s2)CC1
B: NS(=O)(=O)c1ccc(CCNc2nnc(NC(=O)c3ccc(Br)cc3)s2)cc1
Out of A and B , name the one with the higher inhibition at 25 µM. Please respond with the label that marks your chosen entry.
B
(B: 53.9%, A: 31.1%)

1: CC(C)c1cc(C(C)C)c(C(=O)Nc2nnc(NCc3ccco3)s2)c(C(C)C)c1
2: O=C(Nc1nnc(NC2CC2)s1)c1cc2ccccc2s1
In the pair 1 and 2 , the larger recorded inhibition at 25 µM belongs to which? # respond with the chosen item's label
2

----------
# ASSAYED TARGET: HCMV polymerase (Human cytomegalovirus, UniProt P08546)
# Construct: made in house; host or cells: SF-9 insect cells infected with recombinant baculovirus
# Sequence (P08546 whole entry): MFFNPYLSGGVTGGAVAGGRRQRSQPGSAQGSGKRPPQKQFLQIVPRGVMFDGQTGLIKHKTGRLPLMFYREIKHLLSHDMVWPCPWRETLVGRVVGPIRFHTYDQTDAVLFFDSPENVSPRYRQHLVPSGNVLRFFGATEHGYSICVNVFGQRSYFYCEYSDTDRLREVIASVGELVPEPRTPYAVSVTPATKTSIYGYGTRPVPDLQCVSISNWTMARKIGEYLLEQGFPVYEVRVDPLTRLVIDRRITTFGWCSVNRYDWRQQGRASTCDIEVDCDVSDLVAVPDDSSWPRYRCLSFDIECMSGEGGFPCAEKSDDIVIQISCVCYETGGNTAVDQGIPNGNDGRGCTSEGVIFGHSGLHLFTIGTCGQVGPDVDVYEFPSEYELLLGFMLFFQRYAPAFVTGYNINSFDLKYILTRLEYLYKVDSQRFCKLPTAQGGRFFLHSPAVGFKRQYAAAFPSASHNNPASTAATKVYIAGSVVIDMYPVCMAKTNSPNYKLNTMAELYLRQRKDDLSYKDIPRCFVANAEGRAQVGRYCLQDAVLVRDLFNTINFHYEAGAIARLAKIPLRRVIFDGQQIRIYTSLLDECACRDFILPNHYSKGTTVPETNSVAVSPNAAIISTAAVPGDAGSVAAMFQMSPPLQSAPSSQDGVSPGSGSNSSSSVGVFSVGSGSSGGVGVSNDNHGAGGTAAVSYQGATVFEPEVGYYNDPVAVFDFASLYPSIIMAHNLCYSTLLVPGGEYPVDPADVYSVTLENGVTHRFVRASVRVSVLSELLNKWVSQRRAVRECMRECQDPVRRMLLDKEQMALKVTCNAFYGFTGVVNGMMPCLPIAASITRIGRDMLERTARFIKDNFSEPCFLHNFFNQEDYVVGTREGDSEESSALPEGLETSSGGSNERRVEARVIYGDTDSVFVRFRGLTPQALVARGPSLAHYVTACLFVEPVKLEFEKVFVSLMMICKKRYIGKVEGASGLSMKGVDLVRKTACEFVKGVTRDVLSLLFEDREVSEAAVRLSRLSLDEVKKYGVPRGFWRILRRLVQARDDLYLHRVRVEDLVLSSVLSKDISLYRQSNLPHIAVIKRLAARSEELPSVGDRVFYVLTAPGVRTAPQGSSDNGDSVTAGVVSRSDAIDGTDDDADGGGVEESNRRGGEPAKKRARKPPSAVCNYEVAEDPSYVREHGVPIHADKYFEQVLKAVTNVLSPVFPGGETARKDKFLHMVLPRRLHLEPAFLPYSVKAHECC
# PROCEDURE SUMMARY: HCMV polymerase assay (scintillation proximity assay)
# Assay type: biochemical
# DETAILS: percentage of inhibition at 25 μM concentration in CMV polymerase assay
# Method: The compounds of the present invention are tested in an polymerase assay to show activity described below, which is indicative of a compound's activity and thus of its use as an anti-viral agent. […]
MEASUREMENT NAME: inhibition at 25 µM (%)

O=C(/C=C/c1ccccc1Cl)Nc1nnc(NCCc2c[nH]c3ccccc23)s1 [compound 268]; 38.7
O=C(/C=C/c1ccccc1Cl)Nc1nnc(NCc2ccc3c(c2)OCO3)s1 [compound 117]; 61.5
N#Cc1ccc(C(=O)Nc2nnc(NCCCCc3ccccc3)s2)cc1 [compound 143]; 55.4

I: CCCCCCCC/C=C/CCCCCCCC(=O)Nc1nnc(NCCNc2ccccc2)s1 [compound 179]
II: O=C(Nc1nnc(NC2CCc3ccccc32)s1)c1cccc([N+](=O)[O-])c1 (centres unmarked) [compound 355]
Which value of inhibition at 25 µM is numerically greater: that of I or that of II ? Kindly state the label of the option you pick.
I
(I: 48.5%, II: 29.8%)

----------
# ASSAYED TARGET: HCMV polymerase (Human cytomegalovirus, UniProt P08546)
# Construct: made in house; host or cells: SF-9 insect cells infected with recombinant baculovirus
# PROCEDURE SUMMARY: HCMV polymerase assay (scintillation proximity assay)
# Format: biochemical
# DETAILS: percentage of inhibition at 25 μM concentration in CMV polymerase assay
MEASUREMENT NAME: inhibition at 25 µM (%)

CCOc1ccc2ccccc2c1C(=O)Nc1nnc(NCc2ccc3c(c2)OCO3)s1; 83.9

I: CCCCCCCC/C=C/CCCCCCCC(=O)Nc1nnc(NC2CCN(C(=O)OCC)CC2)s1
II: O=C(Nc1nnc(NC2CCN(Cc3ccccc3)CC2)s1)c1cc2ccccc2s1
Smaller inhibition at 25 µM value? Options are I and II Please indicate the selected item by its label.
II

1: CCOc1ccc2ccccc2c1C(=O)Nc1nnc(NCc2ccccn2)s1
2: CN1CCN(CCCNc2nnc(NC(=O)c3ccc(I)cc3)s2)CC1
Between 1 and 2 , whose measured inhibition at 25 µM reads higher? In your reply, give the label of the chosen option.
1

P: CCCCCCCC/C=C/CCCCCCCC(=O)Nc1nnc(NCc2cccc3ccccc23)s1
Q: O=C(Nc1nnc(NCCc2cccs2)s1)c1ccc2c(c1)C(=O)OC2=O
Please let me know which one, P or Q , has a lower measured inhibition at 25 µM value. Could you answer with the label of the item you picked?
P
(P: 60.6%, Q: 99.8%)

----------
# ASSAYED TARGET: HCMV polymerase (Human cytomegalovirus, UniProt P08546)
# Construct: made in house; host or cells: SF-9 insect cells infected with recombinant baculovirus
# PROCEDURE SUMMARY: HCMV polymerase assay (scintillation proximity assay)
# Format: biochemical
# DETAILS: percentage of inhibition at 25 μM concentration in CMV polymerase assay
MEASUREMENT NAME: inhibition at 25 µM (%)

Below, 8 compounds whose answers are already recorded.
Cc1ccc(C(=O)Nc2nnc(NCCc3ccc(S(N)(=O)=O)cc3)s2)cc1; 42.3
O=C(Nc1nnc(NCc2ccc3c(c2)OCO3)s1)c1cc(F)cc(F)c1; 28.1
O=C(Nc1nnc(NCc2ccc(Cl)c(Cl)c2)s1)c1ccc(F)cc1F; 24.5
CCOc1ccc2ccccc2c1C(=O)Nc1nnc(NCc2cccs2)s1; 68.2
CC(C)c1cc(C(C)C)c(C(=O)Nc2nnc(NCc3ccncc3)s2)c(C(C)C)c1; 38.8
CCCCCCCC/C=C/CCCCCCCC(=O)Nc1nnc(NCCC#N)s1; 40.6
N#Cc1ccc(C(=O)Nc2nnc(NCCN3CCOCC3)s2)cc1; 20.3
NS(=O)(=O)c1ccc(CCNc2nnc(NC(=O)c3cc4ccccc4s3)s2)cc1; 38.7

A: O=C(Nc1nnc(NC2CCc3ccccc32)s1)c1ccc2c(c1)C(=O)OC2=O (stereo not drawn)
B: CCCCCCCC/C=C/CCCCCCCC(=O)Nc1nnc(NCCSCC)s1
In the pair A and B , the larger recorded inhibition at 25 µM belongs to which? The response must carry the label of the picked entry.
A
(A: 86.3%, B: 58.3%)

----------
# ASSAYED TARGET: HCMV polymerase (Human cytomegalovirus)
# Construct: made in house; host or cells: SF-9 insect cells infected with recombinant baculovirus
# PROCEDURE SUMMARY: HCMV polymerase assay (scintillation proximity assay)
# Assay type: biochemical
# DETAILS: percentage of inhibition at 25 μM concentration in CMV polymerase assay
MEASUREMENT NAME: inhibition at 25 µM (%)

Reference set, count: 8
COc1ccccc1C(=O)Nc1nnc(NCCNc2ccccc2)s1 [compound 394]; 26
CC(C)c1cc(C(C)C)c(C(=O)Nc2nnc(NCCN3CCCCC3)s2)c(C(C)C)c1 [compound 232]; 42.2
O=C(Nc1nnc(NCCCn2ccnc2)s1)c1ccc(Br)cc1 [compound 272]; 38.2
O=C(Nc1nnc(NCCC(c2ccccc2)c2ccccc2)s1)c1c(Cl)cccc1Cl [compound 63]; 73.8
CCCCCCCC/C=C/CCCCCCCC(=O)Nc1nnc(NC2CCC2)s1 [compound 199]; 46
CCOc1ccc2ccccc2c1C(=O)Nc1nnc(NCc2ccc(F)cc2)s1 [compound 71]; 69.8
CCCCCCCCCCCNc1nnc(NC(=O)c2ccc(C)cc2)s1 [compound 167]; 50.8
O=C(/C=C/c1ccccc1)Nc1nnc(NCC2CCCCC2)s1 [compound 360]; 29

A: CC(C)c1cc(C(C)C)c(C(=O)Nc2nnc(NCCC3CCCN3C)s2)c(C(C)C)c1 (stereo not drawn) [compound 109]
B: O=C(Nc1nnc(NCCc2ccccc2)s1)c1ccc([N+](=O)[O-])o1 [compound 282]
Would you let me know which has the greater inhibition at 25 µM value, A or B ? Selection: enter the item's label.
A
(A: 63.4%, B: 37.1%)
